- Tested on: Escherichia coli (ATCC 25922)
- assayName: MIC by broth microdilution
- Format: cell-based
- studyConditions: Table 2, Example 2
Each entry below lists one item and its recorded MIC value.

Recorded results for 3 molecules are shown here.
{"columns": ["smilesData", "MIC"],
 "data": [
  ["N#Cc1ccc(/C=C/c2cc(/C=C/c3ccc(C#N)cc3)cc(/C=C/c3ccc(C#N)cc3)c2)cc1", ">128 µg/mL"],
  ["CN(C)Cc1ccc(/C=C/c2cc(/C=C/c3ccc(CC(N)=O)cc3)cc(/C=C/c3ccc(CC(=O)O)cc3)c2)cc1", ">128 µg/mL"],
  ["CC(=O)ONc1ccc(CCc2cc(CCc3ccc(NOC(C)=O)cc3)cc(CCc3ccc(NOC(C)=O)cc3)c2)cc1", ">32.0 µg/mL"]
]}

[ask] Returns the measured MIC for the input molecule. Input: CN(C)c1ccc(/C=C/c2cc(/C=C/c3ccc(N(C)C)cc3)cc(/C=C/c3ccc(N(C)C)cc3)c2)cc1
[reply] >128 µg/mL

[ask] Returns the measured MIC for the input molecule. Input: CN(C)c1ccc(CCc2cc(CCc3ccc(N(C)C)cc3)cc(CCc3ccc(N(C)C)cc3)c2)cc1
[reply] >32.0 µg/mL

[ask] Returns the measured MIC for the input molecule. Input: NC(=O)c1ccc(CCc2cc(CCc3ccc(C(N)=O)cc3)cc(CCc3ccc(C(N)=O)cc3)c2)cc1
[reply] >32.0 µg/mL

[ask] Returns the measured MIC for the input molecule. Input: CN(C)C(=O)c1ccc(CCc2cc(CCc3ccc(C(=O)N(C)C)cc3)cc(CCc3ccc(C(=O)N(C)C)cc3)c2)cc1
[reply] >32.0 µg/mL

[ask] Returns the measured MIC for the input molecule. Input: O=[N+]([O-])c1ccc(CCc2cc(CCc3ccc([N+](=O)[O-])cc3)cc(CCc3ccc([N+](=O)[O-])cc3)c2)cc1
[reply] >32.0 µg/mL

[ask] Returns the measured MIC for the input molecule. Input: N#Cc1ccc(CCc2cc(CCc3ccc(C#N)cc3)cc(CCc3ccc(C#N)cc3)c2)cc1
[reply] >32.0 µg/mL

[ask] Returns the measured MIC for the input molecule. Input: NC(=O)Cc1ccc(/C=C/c2cc(/C=C/c3ccc(CC(N)=O)cc3)cc(/C=C/c3ccc(CC(N)=O)cc3)c2)cc1
[reply] >128 µg/mL

[ask] Returns the measured MIC for the input molecule. Input: Nc1ccc(CCc2cc(CCc3ccc(N)cc3)cc(CCc3ccc(N)cc3)c2)cc1
[reply] >32.0 µg/mL
